# EC50 annotations
test system: HIV-1 NL4-3 gag A364V virus; assay: microbe, parasite or virus in culture; assay type: cell-based; conditions: Human immunodeficiency virus 1, NL43, MT2, read-out: EC50 A364V (μM), Table 2, 3× higher viral input

{"COMPOUND": "C=C(C)[C@@H]1CC[C@]2(NCCN3CCS(=O)(=O)CC3)CC[C@]3(C)[C@H](CC[C@@H]4[C@@]5(C)CC=C(C6=CC[C@](CF)(C(=O)O)CC6)C(C)(C)[C@@H]5CC[C@]43C)[C@@H]12", "TARGET OR TEST SYSTEM": "HIV-1 NL4-3 gag A364V virus", "EC50 (µM)": 0.78}
{"COMPOUND": "C=C(C)[C@@H]1CC[C@]2(NCCN3CCS(=O)(=O)CC3)CC[C@]3(C)[C@H](CC[C@@H]4[C@@]5(C)CC=C(C6=CCC(CF)(C(=O)O)CC6)C(C)(C)[C@@H]5CC[C@]43C)[C@@H]12 (mixture of isomers)", "TARGET OR TEST SYSTEM": "HIV-1 NL4-3 gag A364V virus", "EC50 (µM)": 0.21}
{"COMPOUND": "C=C(C)[C@@H]1CC[C@]2(NCCN3CCS(=O)(=O)CC3)CC[C@]3(C)[C@H](CC[C@@H]4[C@@]5(C)CC=C(C6=CCC(C)(C(=O)O)CC6)C(C)(C)[C@@H]5CC[C@]43C)[C@@H]12 (stereo partly drawn) [Compound B, reference compound]", "TARGET OR TEST SYSTEM": "HIV-1 NL4-3 gag A364V virus", "EC50 (µM)": 1.3}
